Below, each entry is listed with its recorded TGI.
# Tested on: CCRF-CEM leukemia
# procedure-text: NCI tumour cell line growth inhibition, 48 h
reported-endpoint: TGI

[[record]]
molecule = "CCOC(=O)C1(C/C=C/CBr)CCc2ccccc2C1=O (centres undefined)"
tgt = "CCRF-CEM leukemia"
recorded_measurement = "> 100 µM"

[[record]]
molecule = "CC(C(=O)OCc1ccccc1)(c1ccco1)N1C(=O)OC(c2ccccc2)C1c1ccccc1 (centres undefined)"
tgt = "CCRF-CEM leukemia"
recorded_measurement = "> 100 µM"

[[record]]
molecule = "CCOC(=O)/C=C/[C@H](O[Si](CC)(CC)CC)C(C)(C)C"
tgt = "CCRF-CEM leukemia"
recorded_measurement = "48.6 µM"

[[record]]
molecule = "COC(=O)/C=C1\\CCC(C)O1 (centres undefined)"
tgt = "CCRF-CEM leukemia"
recorded_measurement = "> 100 µM"

[[record]]
molecule = "Cc1cc(C)c(C[C@H]2COC(=O)[C@]2(O)Cc2c(C)cc(C)cc2C)c(C)c1"
tgt = "CCRF-CEM leukemia"
recorded_measurement = "> 100 µM"

[[record]]
molecule = "O=CN1CCN(CC(O)CN2CCCCC2)CC1 (centres undefined)"
tgt = "CCRF-CEM leukemia"
recorded_measurement = "> 100 µM"

[[record]]
molecule = "O[C@H](c1cc(C(F)(F)F)nc2c(C(F)(F)F)cccc12)[C@@H]1CCCCN1"
tgt = "CCRF-CEM leukemia"
recorded_measurement = "40.7 µM"

[[record]]
molecule = "Nc1nc(NCC2(CO)CC2)cc(=O)[nH]1"
tgt = "CCRF-CEM leukemia"
recorded_measurement = "> 100 µM"

[[record]]
molecule = "CC(=O)O[C@H]1CCC2[C@@H]3CCC4Nc5[nH]ncc5C[C@]4(C)C3CC[C@@]21C (some centres undefined)"
tgt = "CCRF-CEM leukemia"
recorded_measurement = "66.5 µM"

[[record]]
molecule = "Fc1ccc(C(=C2CCN(CCc3ccc4[nH]c(=S)[nH]c4c3)CC2)c2ccc(F)cc2)cc1"
tgt = "CCRF-CEM leukemia"
recorded_measurement = "> 20.6 µM"

[[record]]
molecule = "COc1ccc(O)c(C(=O)c2ccc(C(=O)N[C@H]3CCCNC[C@@H]3NC(=O)c3ccncc3)cc2)c1F"
tgt = "CCRF-CEM leukemia"
recorded_measurement = "6.42 µM"

[[record]]
molecule = "Cc1cc(C2CC(O)C(CO)O2)c(F)cc1F (centres undefined)"
tgt = "CCRF-CEM leukemia"
recorded_measurement = "> 100 µM"

[[record]]
molecule = "CCn1sc2ccccc2c1=O"
tgt = "CCRF-CEM leukemia"
recorded_measurement = "> 48.2 µM"

[[record]]
molecule = "CCOC(=O)c1c(NC(=O)c2cccc(C(F)(F)F)c2)sc2c(CN(C)C)c(O)ccc12"
tgt = "CCRF-CEM leukemia"
recorded_measurement = "11.7 µM"

[[record]]
molecule = "COc1ncc(-c2ccc3ncnc(Nc4cccc(Cl)c4)c3c2)cc1NS(=O)(=O)C1CC1"
tgt = "CCRF-CEM leukemia"
recorded_measurement = "> 100 µM"

[[record]]
molecule = "O=S(=O)(Nc1ccc(F)cc1F)c1ccc(-c2cnc(C3CC3)o2)cc1"
tgt = "CCRF-CEM leukemia"
recorded_measurement = "> 100 µM"

[[record]]
molecule = "Cc1nc(-[n+]2nc(-c3ccncc3)nn2-c2ccccc2)sc1C"
tgt = "CCRF-CEM leukemia"
recorded_measurement = "> 100 µM"

[[record]]
molecule = "COc1cc2c(OC)cc1CSCc1sc(C)c(c1Br)CSC2"
tgt = "CCRF-CEM leukemia"
recorded_measurement = "> 100 µM"

[[record]]
molecule = "CCCCCOc1ccc(/C=N/Nc2cc(C)nc3ccc(Br)cc23)cc1"
tgt = "CCRF-CEM leukemia"
recorded_measurement = "3.51 µM"

[[record]]
molecule = "O=C(CSC1CCc2ccccc21)N/N=C/c1ccccc1O (centres undefined)"
tgt = "CCRF-CEM leukemia"
recorded_measurement = "45.4 µM"

[[record]]
molecule = "CCN(Cc1ccccc1C)c1ccc(CO)c(Cl)c1"
tgt = "CCRF-CEM leukemia"
recorded_measurement = "38.2 µM"

[[record]]
molecule = "O=C(Nc1nncs1)NS(=O)(=O)n1c(=S)sc2ccccc21"
tgt = "CCRF-CEM leukemia"
recorded_measurement = "75.7 µM"

[[record]]
molecule = "C#CC(C)(C)OC(=O)C(=[N+]=[N-])C(C)=O"
tgt = "CCRF-CEM leukemia"
recorded_measurement = "> 10 µM"

[[record]]
molecule = "Cc1c(O)c(OC2OC(CO)C(O)C(O)C2O)cc2c1CC[C@@H]1C2(C)C(=O)C[C@]2(C)[C@@H]([C@@](C)(O)C(=O)CCC(C)(C)O)[C@H](O)C[C@@]12C (some centres undefined)"
tgt = "CCRF-CEM leukemia"
recorded_measurement = "> 100 µM"

[[record]]
molecule = "Cc1ccc(S(=O)(=O)c2ccc(N)cc2)cc1"
tgt = "CCRF-CEM leukemia"
recorded_measurement = "> 100 µM"

[[record]]
molecule = "c1ccc([P+](CC[P+](c2ccccc2)(c2ccccc2)c2ccccc2)(c2ccccc2)c2ccccc2)cc1"
tgt = "CCRF-CEM leukemia"
recorded_measurement = "2.95 µM"

[[record]]
molecule = "c1ccc2nc3c(nc2c1)sc1ccccc13"
tgt = "CCRF-CEM leukemia"
recorded_measurement = "> 100 µM"

[[record]]
molecule = "Cc1cc(C)c(/C=C2\\C(=O)Nc3ccc(NC(=O)CCCCCCC(=O)NO)cc32)[nH]1"
tgt = "CCRF-CEM leukemia"
recorded_measurement = "> 100 µM"

[[record]]
molecule = "CNC(=S)N=Nc1c(O)n(CN2CCOCC2)c2ccc([N+](=O)[O-])cc12"
tgt = "CCRF-CEM leukemia"
recorded_measurement = "71.8 µM"

[[record]]
molecule = "O=C(O/C=C\\OC1CCCC1(c1ccccc1)c1ccccc1)c1ccccc1 (centres undefined)"
tgt = "CCRF-CEM leukemia"
recorded_measurement = "5.89 µM"

[[record]]
molecule = "S=c1[nH]c(=S)c2nnn(-c3ccccc3)c2[nH]1"
tgt = "CCRF-CEM leukemia"
recorded_measurement = "> 100 µM"

[[record]]
molecule = "N=C(N)c1ccc2nc(-c3cc(CC(=O)N[C@@H](CC(=O)O)C(=O)O)cc(-c4cc(S(N)(=O)=O)ccc4O)c3O)[nH]c2c1"
tgt = "CCRF-CEM leukemia"
recorded_measurement = "> 100 µM"

[[record]]
molecule = "O=C1c2ccccc2-c2c1c1ccccc1c(=O)n2CCCCl"
tgt = "CCRF-CEM leukemia"
recorded_measurement = "> 100 µM"

[[record]]
molecule = "c1ccc2c(c1)c1c(c3ccccc32)CN2CCCC2C1 (centres undefined)"
tgt = "CCRF-CEM leukemia"
recorded_measurement = "15.5 µM"

[[record]]
molecule = "CN1C(=O)c2ccccc2OC12C=Cc1ccc(O)cc1O2 (centres undefined)"
tgt = "CCRF-CEM leukemia"
recorded_measurement = "72.8 µM"

[[record]]
molecule = "O=C(Oc1cccnc1)c1cc2cc(CCl)ccc2oc1=O"
tgt = "CCRF-CEM leukemia"
recorded_measurement = "> 100 µM"

[[record]]
molecule = "CCOP(=O)(OCC)OC1C=CC2CCC1C2 (centres undefined)"
tgt = "CCRF-CEM leukemia"
recorded_measurement = "> 100 µM"

[[record]]
molecule = "COc1cc2c3c(n(CCCOC(=O)C(F)(F)F)c(=O)c2cc1OC)-c1cc2c(cc1C3=O)OCO2"
tgt = "CCRF-CEM leukemia"
recorded_measurement = "> 100 µM"

[[record]]
molecule = "C=C1C(=O)OC2CC(C)C3(O)CCC(=O)C3(C)CC12 (centres undefined)"
tgt = "CCRF-CEM leukemia"
recorded_measurement = "> 100 µM"

[[record]]
molecule = "COc1ccc2[nH]c3c(c2c1)CC(=S)N1CCCC(CC3=O)C1 (centres undefined)"
tgt = "CCRF-CEM leukemia"
recorded_measurement = "> 100 µM"

[[record]]
molecule = "CN(C)CC1CCC/C(=C\\c2ccc(Cl)cc2)C1=O (centres undefined)"
tgt = "CCRF-CEM leukemia"
recorded_measurement = "3.39 µM"

[[record]]
molecule = "COC(=O)c1c(C#N)[nH]c(-c2ccsc2)c1C(=O)OC"
tgt = "CCRF-CEM leukemia"
recorded_measurement = "> 100 µM"

[[record]]
molecule = "COc1cc(C(=O)N2CCN(c3ncccn3)CC2)c(N)cc1OCc1ccccc1"
tgt = "CCRF-CEM leukemia"
recorded_measurement = "> 100 µM"

[[record]]
molecule = "O=C1c2cccc3cccc(c23)C2NCCCN12 (centres undefined)"
tgt = "CCRF-CEM leukemia"
recorded_measurement = "> 100 µM"


# credit: PubChem BioAssay (NCI)
